Species on record: Rattus norvegicus
protocol details: Open TG-GATES - Regimen: Single
Format: toxicity, organism-based, Sprague-Dawley
Design: regimen Single, gender Male, age 6 weeks
assay setup: in vivo, po, 100 mg/kg, 24 h, tissue Plasma, route gavage, dose level Low
parameter: gamma-GTP (IU/L)
Give a bare numeral; the unit IU/L is implied.

These recorded examples may help you get a feel for the data.
record smiles	gamma-GTP (IU/L)
COC(=O)C1=C(C)NC(C)=C(C(=O)OC)C1c1ccccc1[N+](=O)[O-]	1.2
Cc1nnc2n1-c1ccc(Cl)cc1C(c1ccccc1Cl)=NC2	1.2

Shift focus to the following entry.
Entry CN/C(=N/CCSCc1nc[nH]c1C)NC#N , gamma-GTP reported as 1.6

----------
This section presents compounds with their documented Mono values.
Species on record: Rattus norvegicus
protocol details: Open TG-GATES - Regimen: Daily Repeat
Type: toxicity, organism-based, Sprague-Dawley
Design: regimen Daily Repeat, gender Male, age 6 weeks
assay setup: in vivo, po, 1000 mg/kg, […], tissue Blood, route gavage, dose level High, time 28 day
Give a bare numeral; the unit % is implied.

These recorded examples may help you get a feel for the data.
compound	Mono / %
CN/C(=N/CCSCc1nc[nH]c1C)NC#N [CIMETIDINE]	2
Cc1nnc2n1-c1ccc(Cl)cc1C(c1ccccc1Cl)=NC2 [TRIAZOLAM]	2.2

Shift focus to the following entry.
Entry CNC(=C[N+](=O)[O-])NCCSCc1ccc(CN(C)C)o1 [RANITIDINE] , Mono reported as 1.8

----------
This section presents molecules with their documented TERMINAL_BW values.
Species on record: Rattus norvegicus
protocol details: Open TG-GATES - Regimen: Single
Assay type: toxicity, organism-based, Sprague-Dawley
Set-up: regimen Single, gender Male, age 6 weeks
assay setup: in vivo, po, 1000 mg/kg, 9 h, route gavage, dose level High
Give a bare numeral; the unit g is implied.

These recorded examples may help you get a feel for the data.
molecule	parameter	reported result
CNC(=C[N+](=O)[O-])NCCSCc1ccc(CN(C)C)o1 [RANITIDINE]	TERMINAL_BW	210.2
CN/C(=N/CCSCc1nc[nH]c1C)NC#N [CIMETIDINE]	TERMINAL_BW	208.6
O=C(OC[C@H]1O[C@@H](OC(=O)c2cc(O)c(O)c(OC(=O)c3cc(O)c(O)c(O)c3)c2)[C@H](OC(=O)c2cc(O)c(O)c(OC(=O)c3cc(O)c(O)c(O)c3)c2)[C@@H](OC(=O)c2cc(O)c(O)c(OC(=O)c3cc(O)c(O)c(O)c3)c2)[C@@H]1OC(=O)c1cc(O)c(O)c(OC(=O)c2cc(O)c(O)c(O)c2)c1)c1cc(O)c(O)c(OC(=O)c2cc(O)c(O)c(O)c2)c1 [TANNIC ACID]	TERMINAL_BW	185.5

Entry COC(=O)C1=C(C)NC(C)=C(C(=O)OC)C1c1ccccc1[N+](=O)[O-] [NIFEDIPINE] , TERMINAL_BW reported as 206.6

Entry Cc1nnc2n1-c1ccc(Cl)cc1C(c1ccccc1Cl)=NC2 [TRIAZOLAM] , TERMINAL_BW reported as 192.1

----------
Species: Rattus norvegicus
protocol details: Open TG-GATES - Regimen: Single
Type: toxicity, organism-based, Sprague-Dawley
Design: regimen Single, gender Male, age 6 weeks
assay setup: in vivo, po, 1000 mg/kg, 3 h, tissue Plasma, route gavage, dose level High
parameter: AST
Express your answer as a number followed by its unit.

These recorded examples may help you get a feel for the data.
molecule	reported result
O=C(OC[C@H]1O[C@@H](OC(=O)c2cc(O)c(O)c(OC(=O)c3cc(O)c(O)c(O)c3)c2)[C@H](OC(=O)c2cc(O)c(O)c(OC(=O)c3cc(O)c(O)c(O)c3)c2)[C@@H](OC(=O)c2cc(O)c(O)c(OC(=O)c3cc(O)c(O)c(O)c3)c2)[C@@H]1OC(=O)c1cc(O)c(O)c(OC(=O)c2cc(O)c(O)c(O)c2)c1)c1cc(O)c(O)c(OC(=O)c2cc(O)c(O)c(O)c2)c1 [TANNIC ACID]	69.6 IU/L
Cc1nnc2n1-c1ccc(Cl)cc1C(c1ccccc1Cl)=NC2 [TRIAZOLAM]	72 IU/L

Entry CN/C(=N/CCSCc1nc[nH]c1C)NC#N [CIMETIDINE] , AST reported as 67 IU/L

Entry CNC(=C[N+](=O)[O-])NCCSCc1ccc(CN(C)C)o1 [RANITIDINE] , AST reported as 67.2 IU/L

Entry COC(=O)C1=C(C)NC(C)=C(C(=O)OC)C1c1ccccc1[N+](=O)[O-] [NIFEDIPINE] , AST reported as 74.8 IU/L

----------
This section presents compounds with their documented TC values.
Species: Rattus norvegicus
protocol details: Open TG-GATES - Regimen: Single
Assay type: toxicity, organism-based, Sprague-Dawley
Design: regimen Single, gender Male, age 6 weeks
assay setup: in vivo, po, 0 mg/kg, 24 h, tissue Plasma, route gavage, dose level Control
Give a bare numeral; the unit mg/dL is implied.

Entry CNC(=C[N+](=O)[O-])NCCSCc1ccc(CN(C)C)o1 , TC reported as 77.2

Entry O=C(OC[C@H]1O[C@@H](OC(=O)c2cc(O)c(O)c(OC(=O)c3cc(O)c(O)c(O)c3)c2)[C@H](OC(=O)c2cc(O)c(O)c(OC(=O)c3cc(O)c(O)c(O)c3)c2)[C@@H](OC(=O)c2cc(O)c(O)c(OC(=O)c3cc(O)c(O)c(O)c3)c2)[C@@H]1OC(=O)c1cc(O)c(O)c(OC(=O)c2cc(O)c(O)c(O)c2)c1)c1cc(O)c(O)c(OC(=O)c2cc(O)c(O)c(O)c2)c1 , TC reported as 80.6

----------
Organism: Rattus norvegicus
protocol details: Open TG-GATES - Regimen: Daily Repeat
Assay type: toxicity, organism-based, Sprague-Dawley
Set-up: regimen Daily Repeat, gender Male, age 6 weeks
assay setup: in vivo, po, 300 mg/kg, 72 h, tissue Plasma, route gavage, dose level Middle, time 3 day
This section presents compounds with their documented gamma-GTP values.
Give a bare numeral; the unit IU/L is implied.

record smiles	parameter	unit string	reported result
CCOc1ccc(NC(C)=O)cc1	gamma-GTP	IU/L	1

Entry CN/C(=N/CCSCc1nc[nH]c1C)NC#N , gamma-GTP reported as 0.6

Entry COC(=O)C1=C(C)NC(C)=C(C(=O)OC)C1c1ccccc1[N+](=O)[O-] , gamma-GTP reported as 1

Entry Cc1nnc2n1-c1ccc(Cl)cc1C(c1ccccc1Cl)=NC2 , gamma-GTP reported as 1

Entry CNC(=C[N+](=O)[O-])NCCSCc1ccc(CN(C)C)o1 , gamma-GTP reported as 1.8

Entry O=C(OC[C@H]1O[C@@H](OC(=O)c2cc(O)c(O)c(OC(=O)c3cc(O)c(O)c(O)c3)c2)[C@H](OC(=O)c2cc(O)c(O)c(OC(=O)c3cc(O)c(O)c(O)c3)c2)[C@@H](OC(=O)c2cc(O)c(O)c(OC(=O)c3cc(O)c(O)c(O)c3)c2)[C@@H]1OC(=O)c1cc(O)c(O)c(OC(=O)c2cc(O)c(O)c(O)c2)c1)c1cc(O)c(O)c(OC(=O)c2cc(O)c(O)c(O)c2)c1 , gamma-GTP reported as 0.6

----------
Species on record: Rattus norvegicus
protocol details: Open TG-GATES - Regimen: Daily Repeat
Format: toxicity, organism-based, Sprague-Dawley
Design: regimen Daily Repeat, gender Male, age 6 weeks
assay setup: in vivo, po, 300 mg/kg, […], tissue Plasma, route gavage, dose level Middle, time 28 day
With a cut-off of 80 IU/L, any LDH strictly below it is called Criterion met; any LDH meeting it or above is called Criterion not met.

// below: answered compounds
compound	category label
CNC(=C[N+](=O)[O-])NCCSCc1ccc(CN(C)C)o1 [RANITIDINE]	Criterion not met
CCOc1ccc(NC(C)=O)cc1 [PHENACETIN]	Criterion met
O=C(OC[C@H]1O[C@@H](OC(=O)c2cc(O)c(O)c(OC(=O)c3cc(O)c(O)c(O)c3)c2)[C@H](OC(=O)c2cc(O)c(O)c(OC(=O)c3cc(O)c(O)c(O)c3)c2)[C@@H](OC(=O)c2cc(O)c(O)c(OC(=O)c3cc(O)c(O)c(O)c3)c2)[C@@H]1OC(=O)c1cc(O)c(O)c(OC(=O)c2cc(O)c(O)c(O)c2)c1)c1cc(O)c(O)c(OC(=O)c2cc(O)c(O)c(O)c2)c1 [TANNIC ACID]	Criterion not met

// query # check: LDH < 80 IU/L for CN/C(=N/CCSCc1nc[nH]c1C)NC#N [CIMETIDINE]
// result Criterion not met

// query # check: LDH < 80 IU/L for COC(=O)C1=C(C)NC(C)=C(C(=O)OC)C1c1ccccc1[N+](=O)[O-] [NIFEDIPINE]
// result Criterion met

----------
Organism: Rattus norvegicus
protocol details: Open TG-GATES - Regimen: Daily Repeat
Type: toxicity, organism-based, Sprague-Dawley
Set-up: regimen Daily Repeat, gender Male, age 6 weeks
assay setup: in vivo, po, 0 mg/kg, 72 h, tissue Plasma, route gavage, dose level Control, time 3 day
This section presents molecules with their documented TP values.
Give a bare numeral; the unit g/dL is implied.

molecule	unit string	reported result
CNC(=C[N+](=O)[O-])NCCSCc1ccc(CN(C)C)o1	g/dL	5.7
CN/C(=N/CCSCc1nc[nH]c1C)NC#N	g/dL	5.7
Cc1nnc2n1-c1ccc(Cl)cc1C(c1ccccc1Cl)=NC2	g/dL	5.6
Nc1c2c(nc3ccccc13)CCCC2	g/dL	5.6

Entry CN1C(=O)CCS(=O)(=O)C1c1ccc(Cl)cc1 (centres undefined) , TP reported as 5.8

Entry CCOc1ccc(NC(C)=O)cc1 , TP reported as 5.7

Entry Brc1ccccc1 , TP reported as 5.7

Entry NC1=NC(=O)C(c2ccccc2)O1 (centres undefined) , TP reported as 5.5

Entry COC(=O)C1=C(C)NC(C)=C(C(=O)OC)C1c1ccccc1[N+](=O)[O-] , TP reported as 5.8
